- protocolDetails: HPLC k' factor value (hydrophobicity) of unconjugated steroid
- Assay type: physicochemical
- testContext: octadecylsilane column, 75% methanol in water, apparent pH 5.0
valueKind: k' factor value

| compound | k' factor value |
| --- | --- |
| CC(=O)O[C@H]1C[C@@]2(C)[C@@H](C[C@@H](O)[C@H]3[C@@]4(C)CC[C@@H](O)[C@@H](C)[C@@H]4CC[C@@]32C)/C1=C(\CCC=C(C)C)C(=O)O [fusidic acid, reference compound] | 20.7 |
| CC(=O)OC1CC2(C)C(CC(O)C3C4(C)CCC(OC(C)=O)C(C)C4CCC32C)C1=C(CCC=C(C)C)C(=O)O (stereo not shown) [3-acetoxyl-fusidic acid] | 26.4 |

P: CC(=O)O[C@@H]1[C@H]2[C@H](C)[C@H](O)CC[C@]2(C)[C@@H]2CC[C@H]3/C(=C(\CCC=C(C)C)C(=O)O)[C@@H](OC(C)=O)C[C@]3(C)[C@@]2(C)[C@H]1O [cephalosporin P1]
Q: CC(=O)O[C@H]1C[C@@]2(C)[C@@H](C[C@@H](O)[C@H]3[C@@]4(C)CC[C@@H](O)[C@@H](C)[C@@H]4CC[C@@]32C)/C1=C(\CCCC(C)C)C(=O)O [24,25-dihydrofusidic acid]
query: Could you kindly indicate whether P or Q has the higher k' factor value value? Write the label of whichever entry you select.
result: Q
(Q: 27.1, P: 9.5)
